Target: human dopamine transporter (Homo sapiens, UniProt Q01959)
Sequence (Q01959 whole entry): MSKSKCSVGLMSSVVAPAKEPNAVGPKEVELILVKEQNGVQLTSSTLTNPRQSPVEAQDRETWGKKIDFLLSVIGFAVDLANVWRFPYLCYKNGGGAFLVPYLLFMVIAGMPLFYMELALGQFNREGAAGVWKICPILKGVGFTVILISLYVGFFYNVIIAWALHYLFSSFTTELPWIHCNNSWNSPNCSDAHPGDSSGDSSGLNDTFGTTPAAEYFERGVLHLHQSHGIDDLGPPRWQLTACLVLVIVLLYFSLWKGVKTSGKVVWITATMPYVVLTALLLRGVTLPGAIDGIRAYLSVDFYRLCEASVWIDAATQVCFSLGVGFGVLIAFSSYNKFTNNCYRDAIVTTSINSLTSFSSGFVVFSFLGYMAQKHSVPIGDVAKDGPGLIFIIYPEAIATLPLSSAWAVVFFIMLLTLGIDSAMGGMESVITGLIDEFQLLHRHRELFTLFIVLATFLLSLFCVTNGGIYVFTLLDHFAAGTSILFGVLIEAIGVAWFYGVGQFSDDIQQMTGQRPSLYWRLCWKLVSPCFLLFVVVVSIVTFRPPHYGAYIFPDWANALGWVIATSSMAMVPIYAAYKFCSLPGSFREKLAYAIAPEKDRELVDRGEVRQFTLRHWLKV
Test: [3H]dopamine uptake by C6-hDAT cells
Conditions: ratio
Record MET whenever DA uptake/binding is at 3 or higher; record NOT MET when lower.

>>> assigned_category("CC(C)(C)NC1CC(c2ccc(Cl)c(Cl)c2)c2ccccc21 (centres unmarked)")
"NOT MET"
>>> assigned_category("CCN(C)C1CC(c2ccc(Cl)c(Cl)c2)c2ccccc21 (centres unmarked)")
"MET"
>>> assigned_category("CC(C)N(C)C1CC(c2ccc(Cl)c(Cl)c2)c2ccccc21 (centres unmarked)")
"NOT MET"
>>> assigned_category("CCNC1CC(c2ccc(Cl)c(Cl)c2)c2ccccc21 (centres unmarked)")
"MET"

Consider now this further compound.
Req: Confirm if DA uptake/binding reported for the compound CCCNC1CC(c2ccc(Cl)c(Cl)c2)c2ccccc21 (centres unmarked) is 3 or above.
Resp: NOT MET

The origin of these recorded values is patent US5821386A.
